# EXPERIMENTAL TARGET: human NHE3 (Homo sapiens)
# Construct: expressed in transfected cells; host or cells: OK26 cells (opossum kidney OK cells); OK26 ND sublines with opNHE1 reduced by 90% for A3
# Sequence (P48764 26-834): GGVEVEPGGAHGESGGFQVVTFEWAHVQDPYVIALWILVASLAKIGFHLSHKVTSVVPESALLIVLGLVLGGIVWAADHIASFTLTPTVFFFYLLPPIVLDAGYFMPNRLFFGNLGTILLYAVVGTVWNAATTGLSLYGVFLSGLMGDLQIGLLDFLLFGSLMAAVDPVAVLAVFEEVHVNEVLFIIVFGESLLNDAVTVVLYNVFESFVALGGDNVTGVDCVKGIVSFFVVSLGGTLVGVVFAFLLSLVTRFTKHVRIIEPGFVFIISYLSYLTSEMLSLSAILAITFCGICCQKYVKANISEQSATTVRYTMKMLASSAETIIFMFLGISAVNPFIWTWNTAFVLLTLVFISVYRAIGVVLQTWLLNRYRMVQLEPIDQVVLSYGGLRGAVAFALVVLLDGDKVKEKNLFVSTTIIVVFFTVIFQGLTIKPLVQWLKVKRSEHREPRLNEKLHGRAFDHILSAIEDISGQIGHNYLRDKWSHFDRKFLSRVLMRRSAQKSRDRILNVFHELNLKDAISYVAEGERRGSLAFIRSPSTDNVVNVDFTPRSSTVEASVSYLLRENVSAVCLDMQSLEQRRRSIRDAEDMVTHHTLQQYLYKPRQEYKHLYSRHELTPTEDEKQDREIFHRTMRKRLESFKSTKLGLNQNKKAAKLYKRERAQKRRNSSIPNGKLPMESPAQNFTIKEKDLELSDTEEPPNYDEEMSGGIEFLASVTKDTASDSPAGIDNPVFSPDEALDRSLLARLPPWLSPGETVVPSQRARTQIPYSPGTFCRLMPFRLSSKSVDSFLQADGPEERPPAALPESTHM
# TEST PROTOCOL: Improved version of measurements of NHE3 inhibitory activities (OK26 ND cell lines)
# Type: cell-based
# TEST CONDITIONS: OK26 ND cell lines (opNHE1 expression reduced by 90%), measurement time 8 minutes at 26° C.; read-out: hNHE3 IC50
pIC50: −log10 of the molar value.
MEASUREMENT LABEL: pIC50

Before answering, review these 4 worked examples.
1. C/C(=C\c1ccccc1-c1ccc(B(O)O)cc1)C(=O)NC(=N)N
7.00
2. C/C(=C\c1c(-c2ccc(O)cc2)cccc1-c1ccc(O)cc1)C(=O)NC(=N)N
6.70
3. C/C(=C\c1ccccc1-c1ccc(O)c(F)c1)C(=O)NC(=N)N
6.68
4. C/C(=C\c1ccccc1-c1ccc(O)c(C)c1)C(=O)NC(=N)N
6.40

[1] C/C(=C\c1ccccc1-c1ccc(O)cc1)C(=O)NC(=N)N
[2] C/C(=C\c1ccc(-c2cc(O)ccc2F)cc1)C(=O)NC(=N)N
*Q* Of 1 and 2 , whose reported pIC50 is the larger number? Indicate which entry you chose by stating its label.
*A* 1
(1: 7.08, 2: 6.72)
